- testContext: in ethyl acetate, 318.15 K
readoutName: solubility (mole fraction)
// no unit, no text: just the number

### Prompt Data request, read-out solubility (mole fraction), for CC(C)(C)c1cc(CCC(=O)NCCCCCCNC(=O)CCc2cc(C(C)(C)C)c(O)c(C(C)(C)C)c2)cc(C(C)(C)C)c1O
### Response 0.00376

* * *

- testContext: in n-propanol, 288.15 K
readoutName: solubility (mole fraction)
Answer using only a numeral; do not append any unit.

### Prompt What does the record list as solubility (mole fraction) for CC(C)(C)c1cc(CCC(=O)NCCCCCCNC(=O)CCc2cc(C(C)(C)C)c(O)c(C(C)(C)C)c2)cc(C(C)(C)C)c1O ?
### Response 0.00807

* * *

- testContext: in isopropanol, 303.15 K
readoutName: solubility (mole fraction)

### Prompt Recorded solubility (mole fraction) of CC(C)(C)c1cc(CCC(=O)NCCCCCCNC(=O)CCc2cc(C(C)(C)C)c(O)c(C(C)(C)C)c2)cc(C(C)(C)C)c1O , please.
### Response 0.00552

* * *

- testContext: in isopropanol, 308.15 K
readoutName: solubility (mole fraction)

### Prompt Record request: solubility (mole fraction) value, item CC(C)(C)c1cc(CCC(=O)NCCCCCCNC(=O)CCc2cc(C(C)(C)C)c(O)c(C(C)(C)C)c2)cc(C(C)(C)C)c1O
### Response 0.00688

* * *

- testContext: in ethyl formate, 283.15 K
readoutName: solubility (mole fraction)
Form rule: numeric answer, no unit written next to it.

### Prompt // query solubility (mole fraction) value for entry CC(C)(C)c1cc(CCC(=O)NCCCCCCNC(=O)CCc2cc(C(C)(C)C)c(O)c(C(C)(C)C)c2)cc(C(C)(C)C)c1O
### Response 0.00151

* * *

- testContext: in ethyl acetate, 303.15 K
readoutName: solubility (mole fraction)
Just the number.

### Prompt Name the reported solubility (mole fraction) value associated with the compound CC(C)(C)c1cc(CCC(=O)NCCCCCCNC(=O)CCc2cc(C(C)(C)C)c(O)c(C(C)(C)C)c2)cc(C(C)(C)C)c1O
### Response 0.00155

* * *

- testContext: in methanol, 283.15 K
readoutName: solubility (mole fraction)

### Prompt # solubility (mole fraction) lookup, item CC(C)(C)c1cc(CCC(=O)NCCCCCCNC(=O)CCc2cc(C(C)(C)C)c(O)c(C(C)(C)C)c2)cc(C(C)(C)C)c1O
### Response 0.00197

* * *

- testContext: in methyl acetate, 293.15 K
readoutName: solubility (mole fraction)
Number only, please.

### Prompt # lookup: solubility (mole fraction) of CC(C)(C)c1cc(CCC(=O)NCCCCCCNC(=O)CCc2cc(C(C)(C)C)c(O)c(C(C)(C)C)c2)cc(C(C)(C)C)c1O
### Response 0.000846

* * *

- testContext: in ethyl formate, 293.15 K
readoutName: solubility (mole fraction)
Lab note: jot the number down without any unit.

### Prompt Please report the recorded solubility (mole fraction) for CC(C)(C)c1cc(CCC(=O)NCCCCCCNC(=O)CCc2cc(C(C)(C)C)c(O)c(C(C)(C)C)c2)cc(C(C)(C)C)c1O .
### Response 0.00207

* * *

- testContext: in methyl acetate, 303.15 K
readoutName: solubility (mole fraction)
Keep it simple and answer with nothing but the number.

### Prompt Quick one: solubility (mole fraction) for CC(C)(C)c1cc(CCC(=O)NCCCCCCNC(=O)CCc2cc(C(C)(C)C)c(O)c(C(C)(C)C)c2)cc(C(C)(C)C)c1O ?
### Response 0.00137

* * *

- testContext: in acetone, 318.15 K
readoutName: solubility (mole fraction)
// response body must contain only the number

### Prompt Look up solubility (mole fraction): CC(C)(C)c1cc(CCC(=O)NCCCCCCNC(=O)CCc2cc(C(C)(C)C)c(O)c(C(C)(C)C)c2)cc(C(C)(C)C)c1O
### Response 0.01

* * *

- testContext: in methyl acetate, 323.15 K
readoutName: solubility (mole fraction)
Lab note: record just the number, no unit beside it.

### Prompt Would you mind telling me what solubility (mole fraction) value was observed for CC(C)(C)c1cc(CCC(=O)NCCCCCCNC(=O)CCc2cc(C(C)(C)C)c(O)c(C(C)(C)C)c2)cc(C(C)(C)C)c1O ?
### Response 0.00538

* * *

- testContext: in n-propanol, 293.15 K
readoutName: solubility (mole fraction)
Answer with a number only.

### Prompt Which solubility (mole fraction) reading was recorded for the molecule CC(C)(C)c1cc(CCC(=O)NCCCCCCNC(=O)CCc2cc(C(C)(C)C)c(O)c(C(C)(C)C)c2)cc(C(C)(C)C)c1O ?
### Response 0.00974

* * *

- testContext: in ethyl acetate, 298.15 K
readoutName: solubility (mole fraction)
Just the number, please, no unit attached.

### Prompt What solubility (mole fraction) value was documented for this compound, CC(C)(C)c1cc(CCC(=O)NCCCCCCNC(=O)CCc2cc(C(C)(C)C)c(O)c(C(C)(C)C)c2)cc(C(C)(C)C)c1O ?
### Response 0.00123

* * *

- testContext: in acetone, 298.15 K
readoutName: solubility (mole fraction)

### Prompt Given the molecule CC(C)(C)c1cc(CCC(=O)NCCCCCCNC(=O)CCc2cc(C(C)(C)C)c(O)c(C(C)(C)C)c2)cc(C(C)(C)C)c1O , what is its reported solubility (mole fraction)?
### Response 0.00328

* * *

- testContext: in ethyl acetate, 288.15 K
readoutName: solubility (mole fraction)
Lab note: record the figure alone, no unit after it.

### Prompt Name the recorded solubility (mole fraction) for CC(C)(C)c1cc(CCC(=O)NCCCCCCNC(=O)CCc2cc(C(C)(C)C)c(O)c(C(C)(C)C)c2)cc(C(C)(C)C)c1O .
### Response 0.000852

* * *

- testContext: in ethanol, 283.15 K
readoutName: solubility (mole fraction)
Give a plain numeric answer without units written out.

### Prompt Which value of solubility (mole fraction) has been reported for CC(C)(C)c1cc(CCC(=O)NCCCCCCNC(=O)CCc2cc(C(C)(C)C)c(O)c(C(C)(C)C)c2)cc(C(C)(C)C)c1O in the records?
### Response 0.00775

* * *

- testContext: in isopropanol, 293.15 K
readoutName: solubility (mole fraction)
The response must contain the number and no unit.

### Prompt Return reported solubility (mole fraction); argument: CC(C)(C)c1cc(CCC(=O)NCCCCCCNC(=O)CCc2cc(C(C)(C)C)c(O)c(C(C)(C)C)c2)cc(C(C)(C)C)c1O
### Response 0.004

* * *

- testContext: in n-propanol, 318.15 K
readoutName: solubility (mole fraction)
Simply state the number, no unit and no words.

### Prompt Quick one: solubility (mole fraction) of CC(C)(C)c1cc(CCC(=O)NCCCCCCNC(=O)CCc2cc(C(C)(C)C)c(O)c(C(C)(C)C)c2)cc(C(C)(C)C)c1O ?
### Response 0.0223

* * *

- testContext: in methyl acetate, 288.15 K
readoutName: solubility (mole fraction)

### Prompt Given CC(C)(C)c1cc(CCC(=O)NCCCCCCNC(=O)CCc2cc(C(C)(C)C)c(O)c(C(C)(C)C)c2)cc(C(C)(C)C)c1O , state its recorded solubility (mole fraction).
### Response 0.000804

* * *

- testContext: in ethyl formate, 318.15 K
readoutName: solubility (mole fraction)
Enter the number alone.

### Prompt Requested field: solubility (mole fraction). Item: CC(C)(C)c1cc(CCC(=O)NCCCCCCNC(=O)CCc2cc(C(C)(C)C)c(O)c(C(C)(C)C)c2)cc(C(C)(C)C)c1O
### Response 0.00622

* * *

- testContext: in methanol, 313.15 K
readoutName: solubility (mole fraction)
When you answer, write just the number.

### Prompt Can you look up the measured solubility (mole fraction) of CC(C)(C)c1cc(CCC(=O)NCCCCCCNC(=O)CCc2cc(C(C)(C)C)c(O)c(C(C)(C)C)c2)cc(C(C)(C)C)c1O for me?
### Response 0.00666

* * *

- testContext: in ethyl acetate, 313.15 K
readoutName: solubility (mole fraction)
Give your answer as a number; write no unit.

### Prompt // returns reported solubility (mole fraction) for input CC(C)(C)c1cc(CCC(=O)NCCCCCCNC(=O)CCc2cc(C(C)(C)C)c(O)c(C(C)(C)C)c2)cc(C(C)(C)C)c1O
### Response 0.00258

* * *

- testContext: in isopropanol, 298.15 K
readoutName: solubility (mole fraction)

### Prompt What does the record list as solubility (mole fraction) for CC(C)(C)c1cc(CCC(=O)NCCCCCCNC(=O)CCc2cc(C(C)(C)C)c(O)c(C(C)(C)C)c2)cc(C(C)(C)C)c1O ?
### Response 0.00459

* * *

- testContext: in methanol, 303.15 K
readoutName: solubility (mole fraction)
Please give the numeric answer without any surrounding text.

### Prompt Quick check: solubility (mole fraction) of CC(C)(C)c1cc(CCC(=O)NCCCCCCNC(=O)CCc2cc(C(C)(C)C)c(O)c(C(C)(C)C)c2)cc(C(C)(C)C)c1O ?
### Response 0.00388
